Where do these numbers come from? They come from paper PMC11936910.

test: Steady-state trough and peak plasma concentrations of PMB (UPLC-MS/MS) and AUCss,24h estimation; assay type: in vivo, critically ill patients; details: human, plasma, iv, modeling set, two-point method (Ctrough,ss and Cpeak,ss, first-order elimination equation), mean ± SD; SD; read-out: Equation-based AUCss,24h
Bridge positions count the residues as written; N and C are the ends. Square brackets hold non-standard residues; d marks the D form. Peptide text beside a SMILES is read from it. * marks the point of attachment. X1 = CC[C@H](C)CCCCC(=O)*; Dab = NCC[C@H](N)C(=O)O
endpoint.label: AUC(0-t) (µg·h/mL)
Numeric only. Scale: µg·h/mL

State the recorded AUC(0-t) for this entry: CC[C@H](C)CCCCC(=O)N[C@@H](CCN)C(=O)N[C@H](C(=O)N[C@@H](CCN)C(=O)N[C@H]1CCNC(=O)[C@H]([C@@H](C)O)NC(=O)[C@H](CCN)NC(=O)[C@H](CCN)NC(=O)[C@H](CC(C)C)NC(=O)[C@@H](Cc2ccccc2)NC(=O)[C@H](CCN)NC1=O)[C@@H](C)O [PMB, polymyxin B] (X1-[Dab]T[Dab][Dab][Dab][dF]L[Dab][Dab]T; lactam 4-C)
102
